Entries and their pKd
- target: T1, human TL1A (human, UniProt O95150 72-251, limits assumed)
- T1 construct: The assays name only 'human TL1A protein'; also called huTL1A; Hu TL1A
- T1 sequence (looked up): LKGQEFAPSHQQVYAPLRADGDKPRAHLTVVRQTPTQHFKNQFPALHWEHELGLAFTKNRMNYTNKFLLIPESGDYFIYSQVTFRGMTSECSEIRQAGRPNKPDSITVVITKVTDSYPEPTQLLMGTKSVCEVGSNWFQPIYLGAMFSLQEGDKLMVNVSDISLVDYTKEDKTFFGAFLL
- testProtocol: SPR, Fab captured on anti-huFab chip, TL1A injected, 1:1 model
pKd: −log10 of the molar value.

binder	result
anti-TL1A Fab 9C8 (Fab, V domains shown, Fab fragment; the Fab's constant parts are not; also called 9C8 Fab; PL-39197) VH: QVQLQESGPGLVKPSETLSLTCTVSGGSISSYFWSWIRQPPGKGLEWIGYIYYSGNTKYNPSLKSRVTISIDTSKNQFSLKLSSVTAADTAVYYCARETGSYYGFDYWGQGTLVTVSS VL: DIQMTQSPSSLSASVGDRVTITCRASQSINNYLNWYQQRPGKAPKLLIYAASSLQSGVPSRFSGSGSGTDFTLTISSLQPGDFATYYCQQSYSTPRTFGQGTKLEIK	> 10.00

Exercise: Query: pKd; subject: anti-TL1A Fab 2G11 (Fab, V domains shown, Fab fragment; the Fab's constant parts are not; also called 2G11 Fab; PL-38025) VH: QVQLQESGPGLVKPSETLSLTCTVSGGSISSYFWSWIRQPPGKGLEWIGYIYYSGSTNYNPSLKSRVTMSIDTSKNQFSLKLSSVTAADTAVYYCAREIGSYYGFDYWGQGALVTVSS VL: DIQMTQSPSSLSASVGDRVTITCRASQSINNYLNWYQQKPGIAPKLLIYATSSLQSGVPSRFSGSGSGTDFSLTISSLQPEDFATYFCQQSYSTPRTFGQGTKVEIK
Solution: > 9.52

Exercise: Look at this binder and give its reported pKd. anti-TL1A Fab 3C6 (Fab, V domains shown, Fab fragment; the Fab's constant parts are not; also called 3C6 Fab; PL-39193) VH: QVQLVESGGGVVQPGRSLRLSCAASGFTFSSYGMHWVRQAPGKGLEWVAVISYDGNNKLYTDSVKGRFTISRDDSKSTLYLQMNSLRAEDTAVYYCARDPTVTLYYYYGMDVWGQGTTVTVSS VL: DIQMTQSPSSLSASVGDRVTITCRTSQDIRDDLGWYQQKPGKAPKRLIYDASSLQSGVPSRFSGSGSGTEFTLTISSLQPEDFATYYCLQHNSYPPTFGQGTKVEIK
Solution: > 10.00

Exercise: Look at this binder and give its reported pKd. anti-TL1A Fab 17E9 (Fab, V domains shown, Fab fragment; the Fab's constant parts are not; also called 17E9 Fab; PL-39194) VH: QVQLVESGGGVVQPGRSLRLSCAASGFTLSSYGMHWVRQAPGKGLEWVAVMSYDGNNKLYADSVKGRFTISRDNSKKTLYLQMNSLRAEDTAVYYCARDETETLYYYYGIDVWGQGTTVTVSS VL: DIQMTQSPSSLSASVGDRVTITCRASQGISNDLAWYQQKPGKAPKRLIFAASSLQSGVPSRFSGSGSGTEFTLTISSLQPEDFATYYCLQHNSYPPTFGGGTKVEIK
Solution: > 10.00
